Tested on: IPOHE (Ipomoea hederacea)
Test: Postemergence herbicidal evaluation
Assay type: in vivo, (L.) Jacq.
Conditions: postemergence, rate 0.0620 kg/ha
MEASURED ATTRIBUTE: IPOHE herbicidal rating

                                   molecule  measured_number
0  Cn1c(C(F)(F)F)cc(=O)n(-c2cc3c(C4OCCCO4)nsc3cc2F)c1=O [Compound 62]              9.0
1  Cn1c(C(F)(F)F)cc(=O)n(-c2ccc3snc(C4(C)OCCO4)c3c2)c1=O [Compound 54]              9.0
2  Cn1c(C(F)(F)F)cc(=O)n(-c2ccc3snc(C4OCC(CS(C)(=O)=O)O4)c3c2)c1=O (single isomer, unassigned) [Compound 86]              9.0
3  C=C1COC(c2nsc3ccc(-n4c(=O)cc(C(F)(F)F)n(C)c4=O)cc23)OC1 [Compound 58]              9.0
4  COCC1COC(c2nsc3ccc(-n4c(=O)cc(C(F)(F)F)n(C)c4=O)cc23)O1 (stereo not drawn) [Compound 64]              9.0
5  Cn1c(C(F)(F)F)cc(=O)n(-c2ccc3snc(-c4ccoc4)c3c2)c1=O [Compound 83]              4.0

----------
Test system: ORYSAT (Rice, Tebonnet)
Assay: Flooded paddy, post-transplant rice tolerance
Type: in vivo, Oryza sativa, (L.) Tebonnet
Settings: flooded paddy, post-transplant rice; rate 0.1250 kg/ha; rated 3-4 weeks after treatment; 0-9 rating scale
Mark class 1 for herbicidal rating, ORYSAT (rice tolerance) under 5, class 0 if at or over.

In [3]: df
Out[3]:
                                    compound              measured_on  assigned_category
 0  CC(C)C1COC(c2nsc3ccc(-n4c(=O)cc(C(F)(F)F)n(C)c4=O)cc23)=N1 (stereo not shown)  ORYSAT (Rice, Tebonnet)            class 0
 1  COC(=O)COc1ccsc1-c1nsc2ccc(-n3c(=O)cc(C(F)(F)F)n(C)c3=O)cc12  ORYSAT (Rice, Tebonnet)            class 1
 2  CC1CCOC(c2nsc3ccc(-n4c(=O)cc(C(F)(F)F)n(C)c4=O)cc23)O1 (stereo not shown)  ORYSAT (Rice, Tebonnet)            class 0
 3  C[C@@H]1C[C@H](C)OC(c2nsc3ccc(-n4c(=O)cc(C(F)(F)F)n(C)c4=O)cc23)O1 (stereo partly shown) [Compound 50]  ORYSAT (Rice, Tebonnet)            class 0
 4  Cc1nn(-c2nsc3ccc(-n4c(=O)cc(C(F)(F)F)n(C)c4=O)cc23)c(C)c1C  ORYSAT (Rice, Tebonnet)            class 1
 5  Cc1nnc(-c2nsc3ccc(-n4c(=O)cc(C(F)(F)F)n(C)c4=O)cc23)s1  ORYSAT (Rice, Tebonnet)            class 1
 6  Cn1c(C(F)(F)F)cc(=O)n(-c2ccc3snc(C4OCC(c5ccccc5)O4)c3c2)c1=O (stereo not shown)  ORYSAT (Rice, Tebonnet)            class 0
 7  CCc1cc(-c2nsc3ccc(-n4c(=O)cc(C(F)(F)F)n(C)c4=O)cc23)c(CC)s1  ORYSAT (Rice, Tebonnet)            class 1
 8  Cc1cccnc1-c1nsc2ccc(-n3c(=O)cc(C(F)(F)F)n(C)c3=O)cc12  ORYSAT (Rice, Tebonnet)            class 0
 9  Cc1ccc(-c2nsc3ccc(-n4c(=O)cc(C(F)(F)F)n(C)c4=O)cc23)nc1  ORYSAT (Rice, Tebonnet)            class 1
10  Cn1c(C(F)(F)F)cc(=O)n(-c2cc3c(C4OCCCO4)nsc3cc2F)c1=O  ORYSAT (Rice, Tebonnet)            class 0
11  Cn1c(C(F)(F)F)cc(=O)n(-c2cc3c(C4OCCO4)nsc3cc2F)c1=O  ORYSAT (Rice, Tebonnet)            class 0
12  Cn1c(C(F)(F)F)cc(=O)n(-c2ccc3snc(-c4sccc4CO)c3c2)c1=O  ORYSAT (Rice, Tebonnet)            class 0
13  Cn1c(C(F)(F)F)cc(=O)n(-c2ccc3snc(-c4sccc4Cl)c3c2)c1=O  ORYSAT (Rice, Tebonnet)            class 0
14  Cn1c(C(F)(F)F)cc(=O)n(-c2ccc3snc(-c4sccc4CBr)c3c2)c1=O  ORYSAT (Rice, Tebonnet)            class 0

----------
Tested on: ORYSAT (Rice, Tebonnet)
Experiment: Flooded paddy, post-transplant rice tolerance
Assay type: in vivo, Oryza sativa, (L.) Tebonnet
Conditions: flooded paddy, post-transplant rice; rate 0.1250 kg/ha; rated 3-4 weeks after treatment; 0-9 rating scale
Protocol: Results of herbicide evaluation are expressed on a rating scale (0-9). The scale is based upon a visual observation of plant stand, vigor, malformation, size, chlorosis and overall plant appearance as compared with a control. The tolerance of transplanted rice to post-transplanted herbicide application is determined as follows: two ten-day-old rice seedlings (cv. Tebonnet) are transplanted into silt loam soil in 32 oz. plastic containers with a diameter of 10.5 cm and no drainage holes. […]
As shown below, each of these molecules has a reported herbicidal rating, ORYSAT (rice tolerance) value.
MEASURED ATTRIBUTE: herbicidal rating, ORYSAT (rice tolerance)

In [3]: df
Out[3]:
                                   molecule  measured_number
0  Cn1c(C(F)(F)F)cc(=O)n(-c2ccc3snc(C4OCC(C)(C)CO4)c3c2)c1=O              9.0
1  Cn1c(C(F)(F)F)cc(=O)n(-c2ccc3snc(-c4cccnc4)c3c2)c1=O              3.0
2  C[C@H]1OC(c2nsc3ccc(-n4c(=O)cc(C(F)(F)F)n(C)c4=O)cc23)O[C@@H]1C              9.0
3  CC1CC(C)(C)OC(c2nsc3ccc(-n4c(=O)cc(C(F)(F)F)n(C)c4=O)cc23)O1 (centres unmarked)              9.0
4  CC1COC(c2nsc3ccc(-n4c(=O)cc(C(F)(F)F)n(C)c4=O)cc23)O1 (centres unmarked)              9.0
5  Cn1cccc1-c1nsc2ccc(-n3c(=O)cc(C(F)(F)F)n(C)c3=O)cc12              3.0
6  C[C@H]1O[C@@H]1c1nsc2ccc(-n3c(=O)cc(C(F)(F)F)n(C)c3=O)cc12              9.0
7  Cn1c(C(F)(F)F)cc(=O)n(-c2ccc3snc(C4(C)OCCO4)c3c2)c1=O              9.0

----------
Test system: GALAP (Galium aparine)
Assay: Preemergence herbicidal evaluation
Format: in vivo
Details: Rate 0.2500 kg/ha; preemergence; rated 4-5 weeks after treatment
As shown below, each of these molecules has a reported GALAP preemergence herbicidal rating value.
MEASURED ATTRIBUTE: GALAP preemergence herbicidal rating

In [3]: df
Out[3]:
                                   molecule  measured_number
0  CN(C(=O)c1nsc2ccc(-n3c(=O)cc(C(F)(F)F)n(C)c3=O)cc12)c1ccc(Cl)cc1              9.0
1  Cc1cc(C)c(-c2nsc3ccc(-n4c(=O)cc(C(F)(F)F)n(C)c4=O)cc23)s1              8.0
2  Cc1ccc(-c2nsc3ccc(-n4c(=O)cc(C(F)(F)F)n(C)c4=O)cc23)s1              9.0
3  CCc1cc(-c2nsc3ccc(-n4c(=O)cc(C(F)(F)F)n(C)c4=O)cc23)c(CC)s1              9.0
4  CCOC(=O)C1CS[C@H](c2nsc3ccc(-n4c(=O)cc(C(F)(F)F)n(C)c4=O)cc23)N1 (stereo partly drawn)              9.0
5  Cn1c(C(F)(F)F)cc(=O)n(-c2ccc3snc(C4OCCS4)c3c2)c1=O (stereo not drawn)              9.0
6  Cc1nnc(-c2nsc3ccc(-n4c(=O)cc(C(F)(F)F)n(C)c4=O)cc23)s1              9.0
7  Cn1c(C(F)(F)F)cc(=O)n(-c2ccc3snc(C(SCCO)SCCO)c3c2)c1=O              7.0
8  Cn1c(C(F)(F)F)cc(=O)n(-c2ccc3snc(-c4cccnc4)c3c2)c1=O              9.0

----------
Tested on: ZEAMX (Corn, Field)
Assay: Postemergence herbicidal evaluation
Type: in vivo, Zea mays, L.
Details: rate 0.0620 kg/ha
MEASURED ATTRIBUTE: Postemergence herbicidal rating, ZEAMX

>>> print(df.to_string())
                                   molecule                      measured_attribute  measured_number
0  Cn1c(C(F)(F)F)cc(=O)n(-c2ccc3snc(C4OCCCS4)c3c2)c1=O (stereo not drawn)  Postemergence herbicidal rating, ZEAMX              7.0
1  COC(=O)COc1ccsc1-c1nsc2ccc(-n3c(=O)cc(C(F)(F)F)n(C)c3=O)cc12  Postemergence herbicidal rating, ZEAMX              6.0
2  Cc1cccnc1-c1nsc2ccc(-n3c(=O)cc(C(F)(F)F)n(C)c3=O)cc12  Postemergence herbicidal rating, ZEAMX              5.3
3  CCOC(=O)C1CS[C@H](c2nsc3ccc(-n4c(=O)cc(C(F)(F)F)n(C)c4=O)cc23)N1 (stereo partly drawn)  Postemergence herbicidal rating, ZEAMX              7.0
4  Cc1nnc(-c2nsc3ccc(-n4c(=O)cc(C(F)(F)F)n(C)c4=O)cc23)s1  Postemergence herbicidal rating, ZEAMX              4.0
5  C[C@H]1O[C@@H]1c1nsc2ccc(-n3c(=O)cc(C(F)(F)F)n(C)c3=O)cc12  Postemergence herbicidal rating, ZEAMX              6.0
6  Cc1cccnc1-c1nsc2cc(F)c(N3C(=O)C4=C(CCCC4)C3=O)cc12  Postemergence herbicidal rating, ZEAMX              4.5
7  Cc1ccc(-c2nsc3ccc(-n4c(=O)cc(C(F)(F)F)n(C)c4=O)cc23)s1  Postemergence herbicidal rating, ZEAMX              5.5
8  Cn1c(C(F)(F)F)cc(=O)n(-c2ccc3snc(C4SCCN4C(=O)c4ccccc4)c3c2)c1=O (stereo not drawn)  Postemergence herbicidal rating, ZEAMX              6.0
